The measurements presented in this section are drawn from ChEMBL document CHEMBL4513216.

test system: Plasmodium berghei; test: Screen against P. berghei liver stage (PbLuc), transformed with Luciferase, at 10uM; type: functional, HepG2; conditions: tested at 10 uM
The whole screen tested about 69,000 compounds, of which about 8,600 (12%) showed an effect of 50% or more. Many of the other results were omitted from the sample, so strong results are more common in it than they were.
Property Name: INHIBITION (%)

molecule=CN(C)[C@@H]1CN(Cc2ccoc2)C[C@@H]2CCCO[C@@H]21 endpoint_unit=% result_number=25.6
molecule="Nc1nc(CN2CCOC(Cn3cccn3)C2)nc2ccccc12 (centres undefined)" endpoint_unit=% result_number=1.75
molecule=Cc1ccc2nc(C)cc(NCCNS(=O)(=O)c3cccnc3)c2c1 endpoint_unit=% result_number=39.7
molecule=Cc1nccn1CCN(C)C(=O)C1CCN(C(=O)C2CCC2)CC1 endpoint_unit=% result_number=16.9
molecule=Cc1ncsc1C(=O)Nc1ccccn1 endpoint_unit=% result_number=25.2
molecule="CC(Cn1ccnc1)NC(=O)Cc1ccc2c(c1)OCCO2 (centres undefined)" endpoint_unit=% result_number=-21.8
molecule=Cc1cc(C)n(-c2ccc3nnc(C)n3n2)n1 endpoint_unit=% result_number=-14.9
molecule=CCn1ccnc1CNc1nccc(-c2cn(C)nc2C)n1 endpoint_unit=% result_number=-67.9
molecule=Cc1cccc(CN2C(=O)CCC23CCN(C(=O)c2ccco2)CC3)c1 endpoint_unit=% result_number=-7.28
molecule=CCOC(=O)N(C)CC(=O)NCCc1coc(-c2ccc(C)cc2)n1 endpoint_unit=% result_number=11.4
molecule=CCOCCCn1c(NC(=O)c2scnc2C)nc2ccccc21 endpoint_unit=% result_number=69.8
molecule=Cc1ccccc1S(=O)(=O)N[C@@H]1CC[C@@H](N2CCNC(=O)C2)[C@@H]1O endpoint_unit=% result_number=6.65
molecule=CCC[C@H]1CN(S(C)(=O)=O)C[C@@H]1NC(=O)Cc1ccc(F)cc1C endpoint_unit=% result_number=30.3
molecule=CCOCCCn1c(NC(=O)c2cnn(C)c2)nc2ccccc21 endpoint_unit=% result_number=-4.73
molecule=CCn1ccnc1CNc1nccc(-c2c(C)nn(C)c2C)n1 endpoint_unit=% result_number=-47.8
molecule="CC(C)N1CCn2c(COCC3CCOCC3)cnc2C1C (centres undefined)" endpoint_unit=% result_number=39.4
molecule=CCc1nccn1CCCNc1nccc(-c2c(C)nn(C)c2C)n1 endpoint_unit=% result_number=65.2
molecule=CCOCCCn1c(NC(=O)c2ccnc(C)n2)nc2ccccc21 endpoint_unit=% result_number=25.4
molecule=Cc1noc(OCc2ccc(C#N)cc2)n1 endpoint_unit=% result_number=64.5
molecule=Cn1cc(C(=O)N2CCN(Cc3cscn3)CC2)ccc1=O endpoint_unit=% result_number=-8.22
molecule=COc1cc(N2CC[C@@H]3O[C@H](C(=O)NCC4CC4)C[C@@H]32)ncn1 endpoint_unit=% result_number=-22.1
molecule=CCOCCCn1c(NC(=O)c2ccc(C)nc2)nc2ccccc21 endpoint_unit=% result_number=37.2
molecule=COc1nn(C)c2c1CCCN(C(=O)c1ccc3c(c1)OCO3)C2 endpoint_unit=% result_number=20.9
molecule=CC(C)c1noc(OCc2cccc(C#N)c2)n1 endpoint_unit=% result_number=46.1
